Test system: PmTbr T-box DNA-binding domain (GST fusion);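 further: 200 nM protein in PBS on universal arrays averaged over duplicate arrays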
Sequence: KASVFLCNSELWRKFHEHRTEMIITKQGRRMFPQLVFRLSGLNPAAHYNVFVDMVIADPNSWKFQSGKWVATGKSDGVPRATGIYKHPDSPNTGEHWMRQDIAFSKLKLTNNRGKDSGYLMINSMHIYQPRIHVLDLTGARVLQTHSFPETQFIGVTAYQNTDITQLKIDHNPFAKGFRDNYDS
Assay: PBM E-score of 8-mer (E-score (dimensionless, -0.5 to 0.5)); higher = stronger binding preference
Conditions: the construct has about 5 more residues each side
Over roughly 33,000 sequences, “E-score (dimensionless, -0.5 to 0.5)” has its median near -0.049; the highest 2% begin near 0.37. The sample holds the highest values, similar sequences and a random draw of the others, so the mix is not that of the screen.
The reader will find reported PBM E-score of 8-mer values listed item by item below.
Lab note: record the figure alone, no unit after it.

Record summary for CATGACAA : reported PBM E-score of 8-mer = 0.204

For reference, reported PBM E-score of 8-mer for GATGACAA stands at 0.202

Field PBM E-score of 8-mer (entry GATAGCAA ) reads 0.202

----------
Tested on: PmTbr T-box DNA-binding domain (GST fusion);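 further: 200 nM protein in PBS on universal arrays averaged over duplicate arrays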
Sequence: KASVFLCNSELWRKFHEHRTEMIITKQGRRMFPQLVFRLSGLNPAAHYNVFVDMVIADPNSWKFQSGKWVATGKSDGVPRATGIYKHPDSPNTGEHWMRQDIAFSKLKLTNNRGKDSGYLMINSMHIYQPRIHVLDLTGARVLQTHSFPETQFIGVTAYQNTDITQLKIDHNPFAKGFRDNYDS
Experiment: PBM E-score of 8-mer (E-score (dimensionless, -0.5 to 0.5)); higher = stronger binding preference
Settings: target sequence: T-box / the construct has about 5 more residues each side
Whole data set: some 33,000 sequences, median “E-score (dimensionless, -0.5 to 0.5)” near -0.049, cut for the highest 2% near 0.37. This is one part of a sample in which the highest values are shown more often than they occur.
// map PBM E-score of 8-mer onto a label; ranges group 1 (below 0.05), group 2 (0.05 to below 0.3), group 3 (0.3 or more)

1) CGTCGCAC : group 3
2) ACCTGTGC : group 2
3) CGGGTGTA : group 2
4) ACGAGGTC : group 1

Quick check: band for AAGTGTGT
group 3

Which bin should I file AAGTGTGC under?
group 3

Band for ACTGACAA ?
group 2

Hi there! Could you help me figure out the category for CCAGTGTC please?
group 2

Just checking, what class would you give CTATACCA here?
group 1

Using the reported PBM E-score of 8-mer, which band applies to CAGTGTGA ?
group 3

----------
Test system: PmTbr T-box DNA-binding domain (GST fusion);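 further: 200 nM protein in PBS on universal arrays averaged over duplicate arrays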
Sequence: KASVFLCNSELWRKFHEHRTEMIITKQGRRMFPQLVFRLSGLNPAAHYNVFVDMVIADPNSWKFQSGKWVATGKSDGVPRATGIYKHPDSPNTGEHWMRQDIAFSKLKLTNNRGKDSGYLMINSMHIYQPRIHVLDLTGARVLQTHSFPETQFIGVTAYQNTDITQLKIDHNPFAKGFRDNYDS
Assay: PBM E-score of 8-mer (E-score (dimensionless, -0.5 to 0.5)); Tbr is Tbrain of the sea star Patiria miniata (Pm) or the sea urchin Strongylocentrotus purpuratus (Sp); higher = stronger binding preference
Settings: target sequence: T-box / the construct has about 5 more residues each side
Whole data set: some 33,000 sequences, median “E-score (dimensionless, -0.5 to 0.5)” near -0.049, cut for the highest 2% near 0.37. The list comes from a sample in which the highest values are over-represented; it also holds close analogues and randomly drawn sequences.
Values of PBM E-score of 8-mer greater than or equal to 0.2 map to Met; values below map to Not met.

1) CTCGTCCC : Not met
2) GGAGGTGA : Met

Textbook exercise: given the entry AAGTGCTC , state whether its PBM E-score of 8-mer is greater than or equal to 0.2.
Not met

Given TGTGATAA , state whether its PBM E-score of 8-mer is at least 0.2.
Met

Quick check: does AAGGTGAA have PBM E-score of 8-mer greater than or equal to 0.2?
Not met
